# METHOD: qHTS assay to identify small molecule agonists of the estrogen receptor beta (ER-beta) signaling pathway - cell viability counter screen (AID 1259380); note: nearly all actives have a fitted effect of over 30% in size
# RECORDED_CONDITIONS: ER-beta-bla HEK293T viability, CellTiter-Glo luminescence, 16 h; series mostly up to 92.4 µM
Records with an inconclusive call do not appear. Calls of active or inactive are those of the source. Calls come from the whole dose curve; as a rule, active = well fitted cell-killing curve with a large enough effect in the repeat runs; inconclusive = weak or mixed curves, or effect the other way; inactive = flat fitted curve, though single readings scatter.
A correct response names exactly one class from active, inactive

Examples from the recorded data:
Brc1ccc(Oc2ccc(Br)cc2)cc1 : inactive
OCC(O)CS (stereo unspecified) : inactive
Cc1cc(CC(=O)O)n(C)c1C(=O)c1ccc(Cl)cc1 : inactive
CC(C)=CCC/C(C)=C/C=O : inactive
CN1CCCC1=O : inactive

q: # outcome recorded in this test, key = OCc1ccc(Cl)cc1Cl
a: inactive

q: # outcome recorded in this test, key = O=Cc1ccc(CO)o1
a: inactive

q: # outcome recorded in this test, key = CC(C)(CO)CO
a: inactive

q: # outcome recorded in this test, key = CCOC(=O)c1ccc(O)cc1
a: inactive

q: # outcome recorded in this test, key = OC1CCCCC1
a: inactive

====

# METHOD: qHTS assay to identify small molecule agonists of the estrogen receptor beta (ER-beta) signaling pathway - cell viability counter screen (AID 1259380); note: nearly all actives have a fitted effect of over 30% in size
# RECORDED_CONDITIONS: ER-beta-bla HEK293T viability, CellTiter-Glo luminescence, 16 h; series mostly up to 92.4 µM
Records with an inconclusive call do not appear. Active and inactive are the calls of the source. The call rests on the fitted dose curve; in most records, active means well fitted cell-killing curve with a large enough effect in the repeat runs; inconclusive means weak or mixed curves, or effect the other way; inactive means flat fitted curve, though single readings scatter.
A correct response names exactly one class from T (active), F (inactive)

Cc1ccc([N+](=O)[O-])cc1N : F

q: # outcome recorded in this test, key = O=C1C(N(CO)C(=O)NCO)N(CO)C(=O)N1CO (stereo unspecified)
a: F

q: # outcome recorded in this test, key = Cc1cccc(C)c1[N+](=O)[O-]
a: F

q: # outcome recorded in this test, key = Nc1cccc(N)n1
a: F

q: # outcome recorded in this test, key = NC1CCCCC1N (stereo unspecified)
a: F

====

# METHOD: qHTS assay to identify small molecule agonists of the estrogen receptor beta (ER-beta) signaling pathway - cell viability counter screen (AID 1259380); note: nearly all actives have a fitted effect of over 30% in size
# RECORDED_CONDITIONS: ER-beta-bla HEK293T viability, CellTiter-Glo luminescence, 16 h; series mostly up to 92.4 µM
Records with an inconclusive call do not appear. Activity calls are given as the source filed them. Calls come from the whole dose curve; as a rule, active = well fitted cell-killing curve with a large enough effect in the repeat runs; inconclusive = weak or mixed curves, or effect the other way; inactive = flat fitted curve, though single readings scatter.
A correct response names exactly one class from active, inactive

Examples from the recorded data:
CC1(C)[C@@H](O[C@H]2O[C@H](C(=O)O)[C@@H](O)[C@H](O)[C@H]2O[C@@H]2O[C@H](C(=O)O)[C@@H](O)[C@H](O)[C@H]2O)CC[C@]2(C)[C@H]3C(=O)C=C4[C@@H]5C[C@@](C)(C(=O)O)CC[C@]5(C)CC[C@@]4(C)[C@]3(C)CC[C@@H]12 : inactive
COc1ccc2cc3[n+](cc2c1OC)CCc1cc2c(cc1-3)OCO2 : active
Nc1cccc(C(F)(F)F)c1 : inactive
O=C1OC(=O)c2c(Cl)c(Cl)c(Cl)c(Cl)c21 : inactive
O=c1c(O)c(-c2ccc(O)c(O)c2)oc2cc(O)cc(O)c12 : inactive

Turning now to a further record.
q: # outcome recorded in this test, key = Cc1ccccc1Cl
a: inactive
